# subject-of-test: PDLIM1, O00151
# Sequence (O00151 1-87): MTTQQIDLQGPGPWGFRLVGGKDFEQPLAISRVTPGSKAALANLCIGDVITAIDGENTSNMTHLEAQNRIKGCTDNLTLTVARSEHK
# method-description: holdup assay
# Parameters: key: below the threshold = too weak to quantify, mostly under pKd 3.1 to 4
# stated-conditions: plain residues with an end cap or a label only (N-terminal biotin on a linker: ado-ado)
measured-property: pKd

binder: TASPAKETSF [SLC2A7, Q6PXP3]
pKd: below the threshold
//
binder: YYKRPVQEWV [MMP24, Q9Y5R2]
pKd: below the threshold
//
binder: GSGAVEMESV [AQP6, Q13520]
pKd: below the threshold
//
binder: TSQESEDTYL [TBC1D10A, Q9BXI6]
pKd: below the threshold
//
binder: IPLDGETEEL [MYOZ1, Q9NP98]
pKd: 4.18
//
binder: YRLAQESGLV [ABCC6, O95255]
pKd: below the threshold
//
binder: SSALYGESDL [ACTN2, P35609]
pKd: 4.75
//
binder: RHGSCVETSL [TMEM151B, Q8IW70]
pKd: 3.65

Query binder follows.
Please report the recorded pKd for LGRSTPQSEV [DGKH, Q86XP1] . below the threshold
